Reference source: the supplement of paper PMC10567573

// reported protein stability index per item
Assay: protein stability index of a GFP-peptide fusion (GPS, HEK-293T) (PSI 1-6); higher = more stable;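 note: 24-mer peptide tiles fused after GFP, lentivirally expressed, FACS-sorted into six equal bins by GFP/DsRed ratio, decoded by Illumina sequencing, PSI is the read-weighted mean bin number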
Conditions: treatment: DMSO; c terminus: a fixed tail appended
Write the value as a bare number.

{"residue codes": "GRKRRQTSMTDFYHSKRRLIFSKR [CDKN1A]", "protein stability index": 3.35}
{"residue codes": "RDLIPPHVNFSHLTTKDYMEMYNV [SLC6A17]", "protein stability index": 3.04}
{"residue codes": "GDCDAREEKQRELARKGSLKNGSM [FAM219A]", "protein stability index": 5.1}
{"residue codes": "RAILYPCHGMSSQLVRYSADGLLQ [GALNT9]", "protein stability index": 2.69}
{"residue codes": "VWMDDFKSHVYMAWNIPMSNPGVD [GALNT9]", "protein stability index": 2.21}
{"residue codes": "PVHTTILNPHIHLMGDESACIAYI [CAMK2A]", "protein stability index": 2.42}

So what does the record say about protein stability index for RAQLHVQGLLHEAGSTDDRIVVPQ [SPNS1] ? 4.15

// repeat for RQMAFDFARVKKGADGVMRTMAPE [SNAP91] and report 3.47

// repeat for NMCLVATGGADAYYEMGIHCWDVA [IMPA1] and report 2.13

// repeat for RNVRERIAKNLVEKGILTTEKQNF [GOLPH3L] and report 3.73

// repeat for AGEDNDDLIDNLKEAQYIRTERVE [PCMTD1] and report 5.08

// repeat for GQPFNSDDRNTACHHGLVADSLQA [DLC1] and report 4.49

// repeat for GILTLAMIAFFFIIIYLGPMVLMI [CDS2] and report 2.7

* * *

// reported protein stability index per item
Assay: protein stability index of a GFP-peptide fusion (GPS, HEK-293T) (PSI 1-6); higher = more stable
Details: treatment: DMSO; c terminus: a fixed tail appended
Write the value as a bare number.

The following sequences have reported results that may help.
{"residue codes": "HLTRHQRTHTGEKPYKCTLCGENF [ZNF263]", "endpoint result": 3.36}
{"residue codes": "MTEWKHQRITKQLEKWMQKNVEEN [GLT8D2]", "endpoint result": 3.85}
{"residue codes": "ENDGFVFKMPWKPTHPSSTHALAE [CDC25B]", "endpoint result": 3.55}
{"residue codes": "VLPPRQPSALVPSVTEYRLDGHTI [MYBL2]", "endpoint result": 3.35}

So what does the record say about protein stability index for GYNLTSISESMAACTRSLLGDPPP [HDAC6] ? 3.52

// repeat for GSSYPTTTISYLPHAPPFAGGHPA [JUNB] and report 3.12

* * *

// reported protein stability index per item
Assay: protein stability index of a GFP-peptide fusion (GPS, HEK-293T) (PSI 1-6); higher = more stable
Details: treatment: MLN4924 1 uM, 8 h; c terminus: a fixed tail appended
Write the value as a bare number.

The following sequences have reported results that may help.
{"residue codes": "QEALDPGPFDQGSPFAQELLDDGQ [ELF3]", "measured parameter": "protein stability index", "endpoint result": 5.32}
{"residue codes": "YDFIVTKARGKSGPLFNFDVHDDV [FAM50A]", "measured parameter": "protein stability index", "endpoint result": 2.78}
{"residue codes": "RSPDASPSRAPPSTQEPQSPREGE [GNAS]", "measured parameter": "protein stability index", "endpoint result": 5.42}
{"residue codes": "GGYLTELEDGFYLTAFICFLVFIL [MFSD9]", "measured parameter": "protein stability index", "endpoint result": 2.14}

So what does the record say about protein stability index for EDSCAELGESKEHMESRMVTETEE [SDE2] ? 5.63

// repeat for APAGDKGFQPPSPSLRPRPASSIS [DMRTC1] and report 4.57

// repeat for VYIFATCLGLSYDGLLGDNQIMPK [MAGEA6] and report 2.44

* * *

Experiment: protein stability index of a GFP-peptide fusion (GPS, HEK-293T) (PSI 1-6); higher = more stable
Settings: treatment: DMSO; c terminus: a fixed tail appended
measured parameter: protein stability index
Write the value as a bare number.

The following sequences have reported results that may help.
{"residue codes": "ENMDLNKIDDLMQEITEQQDIAQE [CHMP4C]", "measured parameter": "protein stability index", "endpoint result": 5.6}
{"residue codes": "SDNLLVILKRKWWKYILLGLADVE [SLC35F2]", "measured parameter": "protein stability index", "endpoint result": 2.38}
{"residue codes": "TALPPMNEARHNFGIVEIDGMLYI [GAN]", "measured parameter": "protein stability index", "endpoint result": 2.24}
{"residue codes": "KDQRNPPSLGRVLPDPREACGSSS [RBMY1A1]", "measured parameter": "protein stability index", "endpoint result": 4.78}
{"residue codes": "DYSPYYKTIEELRDKILTATIENN [KRT13]", "measured parameter": "protein stability index", "endpoint result": 3.17}
{"residue codes": "LTVRKSQSEPSEQDGVLDLSTKKS [LCOR]", "measured parameter": "protein stability index", "endpoint result": 5.15}

Please examine the following record next.
So what does the record say about protein stability index for RMSYQDPAQLSCLPYLEHVGHNHT [NFE2L1] ? 2.98

* * *

Assay: protein stability index of a GFP-peptide fusion (GPS, HEK-293T) (PSI 1-6); higher = more stable
Details: treatment: DMSO; c terminus: a fixed tail appended
measured parameter: protein stability index
Write the value as a bare number.

So what does the record say about protein stability index for RVGKWHQDFPVKKRKKLSTWKQEL [ZNF75A] ? 2.7

// repeat for KQKVSRIERSSSFSSITDSTMSLN [DVL3] and report 4.27

// repeat for AIVSCTPVHLIDKLPLPVTIKSHL [RAB40C] and report 2.18

// repeat for GWWKRLFTLKEEKPKMYFMTMIVS [ARL6IP1] and report 2.95

// repeat for DGQYLGVAFRGLKGKKLYPVVSAV [SPSB4] and report 2.08

// repeat for SCLRRRRHPPKVGDDSDLSEGFES [SMG5] and report 5.02

// repeat for EASGYVDRDMFFKICESLNVPVDD [EFHC1] and report 3.95

// repeat for QLKEEMARHLREYQELLNVKMALD [PRPH] and report 3.32

// repeat for RHSKGLQILGQTLKASMRELGLLI [KCNA1] and report 2.96

// repeat for TGANTKKPEDTAEDLTAKRKRMKM [FAM9B] and report 5.4

// repeat for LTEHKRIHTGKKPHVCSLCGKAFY [ZNF649] and report 2.83

// repeat for PSSGPVTPQPTALTFAKSSWARQE [AUP1] and report 4.2

// repeat for KHAGKDPVRDECEERNRFTETREE [FAM9B] and report 5.54

// repeat for RSSGLVQRRTEASRNAADKERAAG [GOLPH3] and report 5.11

// repeat for HLLSWFSPTIIFDNWIPLLWCANI [DHCR7] and report 2.98

// repeat for IQGADTIRCVYILDPWFAGSSNVG [CRY1] and report 2.81

// repeat for SPPEASPGPPAAPRARRRLGSGPD [PWWP2B] and report 5.22

// repeat for NDTDFRVYLLGNPVVWWLNLLSIA [POMT2] and report 2.89

// repeat for LLYAQGLLAIQFLEFFYGIATATE [SLC19A2] and report 3.53

// repeat for LKTSKMALSPSATAKRINRTSLSS [CDC14A] and report 3.71

// repeat for GMKIDLIDGKGRGVIATKQFSRGD [KMT5A] and report 3.49

// repeat for AADGETTATEELEKTQDDLMKHQT [EPB41L3] and report 5.62

// repeat for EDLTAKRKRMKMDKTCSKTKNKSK [FAM9B] and report 4.98

// repeat for SAAQTDPTTGYRRLLRFSSQIHNN [LOXL2] and report 3.1

// repeat for QFLEEINKWTVQYNVSPLSWNVAV [PTPN9] and report 2.79

// repeat for VLERAACLRRCKRTLPAFQVPYPP [P3H4] and report 2.16

// repeat for EKKKAHYRQSSFPHCSDLMPSGSE [KCNA4] and report 4.2

// repeat for YLFWEFATDNYDIGFGVYFEWTDS [ACBD3] and report 3.14

* * *

Assay: protein stability index of a GFP-peptide fusion (GPS, HEK-293T) (PSI 1-6); higher = more stable
Conditions: treatment: MLN4924 1 uM, 8 h; c terminus: a fixed tail appended
measured parameter: protein stability index

The following sequences have reported results that may help.
{"residue codes": "FWRIDEDYPVQVAPLSNGLCCAFS [WSB1]", "endpoint result": 2.41}
{"residue codes": "VAAGEKSILTDNPTWIIDPIDGTT [IMPA1]", "endpoint result": 4.03}
{"residue codes": "YAYSNGIDYKTTTILLDGRRVRLE [RAB40C]", "endpoint result": 2.56}
{"residue codes": "PWNCILLTKDEAAAHLKLTSIEEG [IQUB]", "endpoint result": 3.44}
{"residue codes": "HEQALFIYVHILKDTRMAEEYCHK [VPS39]", "endpoint result": 2.4}

So what does the record say about protein stability index for YKRQEESGAAASLNVDAAVQQWLQ [CHIT1] ? 4.1

// repeat for LTRVLAEMREQYEAMAEKNRRDVE [KRT15] and report 3.93
